target: Recombinant active human SCCE (Homo sapiens, UniProt P49862); construct: made in house; host or cells: murine C127 cells transfected with a BPV vector (murine MT promoter); assay: SCCE Inhibitor Test (chromogenic substrate S-2586, absorbance at 405 nm); assay type: biochemical; settings: 1 h; 5 μM compound
Sequence (P49862 30-253): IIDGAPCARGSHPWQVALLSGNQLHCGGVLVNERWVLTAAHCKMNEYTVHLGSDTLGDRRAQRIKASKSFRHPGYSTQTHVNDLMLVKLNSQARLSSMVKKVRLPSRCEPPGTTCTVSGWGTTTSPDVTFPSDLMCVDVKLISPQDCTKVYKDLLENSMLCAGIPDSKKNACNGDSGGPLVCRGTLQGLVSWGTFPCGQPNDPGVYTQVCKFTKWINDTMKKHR
Measure Name: remaining activity at 5 µM (%)

Some entries whose results are on file:
Compound Structure String: Cc1cc(-c2nc3cc(Cl)ccc3c(=O)o2)ccc1[N+](=O)[O-]
remaining activity at 5 µM (%): 36
//
Compound Structure String: O=c1oc(-c2cccc3ccccc23)nc2sc3c(c12)CCCC3
remaining activity at 5 µM (%): 41
//
Compound Structure String: CCc1cc2c(=O)oc(-c3ccc(Br)cc3)nc2s1
remaining activity at 5 µM (%): 37
//
Compound Structure String: O=c1oc(-c2ccc([N+](=O)[O-])cc2Cl)nc2cc(Cl)ccc12
remaining activity at 5 µM (%): 0
//
Compound Structure String: CCc1cc2c(=O)oc(-c3ccc(F)cc3)nc2s1
remaining activity at 5 µM (%): 8

(P) COc1cccc(-c2nc3sc4c(c3c(=O)o2)CCCC4)c1
(Q) Cc1nc2sc3c(c2c(=O)o1)CCCCC3
Select one. Lower remaining activity at 5 µM: P or Q Answer with the label corresponding to your selection.
Q

(a) CC(=O)Oc1ccc(-c2nc3ccccc3c(=O)o2)cc1
(b) CCc1ccc(-c2nc3cc(Cl)ccc3c(=O)o2)cc1
Higher remaining activity at 5 µM between a and b ? Indicate which entry you chose by stating its label.
a

----------
biological target: Recombinant active human SCCE (Homo sapiens, UniProt P49862); construct: made in house; host or cells: murine C127 cells transfected with a BPV vector (murine MT promoter); experiment: SCCE Inhibitor Test (chromogenic substrate S-2586, absorbance at 405 nm); assay type: biochemical; settings: 1 h; 5 μM compound
Measure Name: remaining activity at 5 µM (%)

Reference set, count: 3
Molecule: O=c1oc(-c2ccccc2)nc2sc3c(c12)CCC3 [II-12]
remaining activity at 5 µM [%]: 16
--
Molecule: COc1ccccc1-c1nc2sc3c(c2c(=O)o1)CCCC3 [II-16]
remaining activity at 5 µM [%]: 0
--
Molecule: CCc1cc2c(=O)oc(-c3ccccc3C)nc2s1 [II-3]
remaining activity at 5 µM [%]: 0

(A) CCc1cc2c(=O)oc(-c3ccccc3F)nc2s1 [II-1]
(B) O=c1oc(-c2ccccc2F)nc2sc3c(c12)CCCC3 [II-15]
(C) O=c1nc(-c2cccs2)oc2ccccc12 [Compound I-20]
List from greatest to least remaining activity at 5 µM. // format: requested-order list of labels
C, B, A
(C: 16%, B: 2.4%, A: 0%)

----------
target: Recombinant active human SCCE (Homo sapiens, UniProt P49862); construct: made in house; host or cells: murine C127 cells transfected with a BPV vector (murine MT promoter); experiment: SCCE Inhibitor Test (chromogenic substrate S-2586, absorbance at 405 nm); assay type: biochemical; settings: 1 h; 1 μM compound
Measure Name: remaining activity at 1 µM (%)

Some solved entries appear below for comparison.
Molecule: COc1cc2nc(-c3ccccc3F)oc(=O)c2cc1OC [Compound I-11]
Measure Name: remaining activity at 1 µM
Numeric Result: 39
--
Molecule: O=c1oc(-c2cccs2)nc2cc(Cl)ccc12 [Compound I-4]
Measure Name: remaining activity at 1 µM
Numeric Result: 22
--
Molecule: COc1cc2nc(-c3ccccc3Cl)oc(=O)c2cc1OC [Compound I-16]
Measure Name: remaining activity at 1 µM
Numeric Result: 15
--
Molecule: CCc1cc2c(=O)oc(-c3ccc(Br)cc3)nc2s1 [II-9]
Measure Name: remaining activity at 1 µM
Numeric Result: 58

(a) O=c1nc(-c2ccco2)oc2ccccc12 [Compound I-21, 2-Furan-2-yl-benzo[e][1,3]oxazin-4-one]
(b) O=c1nc(-c2ccccc2Cl)oc2ccccc12 [Compound I-19]
(c) CCc1cc2c(=O)oc(-c3ccccc3F)nc2s1 [II-1]
(d) O=c1oc(-c2ccccc2Cl)nc2sc3c(c12)CCC3 [II-10]
Arrange the 4 molecules by rising remaining activity at 1 µM, starting with the smallest. List the labels according to the requested ordering.
c, d, a, b

----------
molecular target: Recombinant active human SCCE (Homo sapiens, UniProt P49862); construct: made in house; host or cells: murine C127 cells transfected with a BPV vector (murine MT promoter); experiment: SCCE Inhibitor Test (chromogenic substrate S-2586, absorbance at 405 nm); format: biochemical; details: 1 h; 5 μM compound
Measure Name: remaining activity at 5 µM (%)

These recorded examples may help you get a feel for the data.
Compound: O=c1nc(-c2ccccc2Cl)oc2ccccc12 [Compound I-19]
Unit String: %
remaining activity at 5 µM: 44

Compound: O=c1oc(-c2ccccc2Cl)nc2sc3c(c12)CCC3 [II-10]
Unit String: %
remaining activity at 5 µM: 2

(A) COc1cc2nc(-c3ccccc3F)oc(=O)c2cc1OC [Compound I-11]
(B) O=c1oc(-c2cccs2)nc2sc3c(c12)CCC3 [II-14]
(C) O=c1oc(-c2cccs2)nc2cc(Cl)ccc12 [Compound I-4]
(D) O=c1oc(-c2ccccc2)nc2sc3c(c12)CCCC3 [II-17]
Arrange by remaining activity at 5 µM, high to low. // format: requested-order list of labels
D, B, A, C
(D: 33%, B: 21%, A: 8%, C: 5%)

----------
target: Recombinant active human SCCE (Homo sapiens, UniProt P49862); construct: made in house; host or cells: murine C127 cells transfected with a BPV vector (murine MT promoter); assay: SCCE Inhibitor Test (chromogenic substrate S-2586, absorbance at 405 nm); assay type: biochemical; conditions: 1 h; 5 μM compound
Measure Name: remaining activity at 5 µM (%)

Compound: O=c1nc(-c2cccs2)oc2ccc(Cl)cc12
remaining activity at 5 µM, %: 4
--
Compound: O=c1oc(-c2ccco2)nc2sc3c(c12)CCC3
remaining activity at 5 µM, %: 8
--
Compound: O=c1nc(-c2ccco2)oc2ccccc12 [Compound I-21, 2-Furan-2-yl-benzo[e][1,3]oxazin-4-one]
remaining activity at 5 µM, %: 16
--
Compound: O=c1oc(-c2ccc(F)cc2)nc2sc3c(c12)CCC3
remaining activity at 5 µM, %: 14

(1) O=c1nc(-c2ccco2)oc2ccc(Cl)cc12
(2) Cc1sc2nc(-c3ccco3)oc(=O)c2c1C
(3) O=c1oc(-c2ccccc2O)nc2ccccc12
Sort by remaining activity at 5 µM, descending. Respond with an ordered listing of the labels, as requested.
3, 2, 1
(3: 47%, 2: 13%, 1: 7%)

----------
target: Recombinant active human SCCE (Homo sapiens, UniProt P49862); construct: made in house; host or cells: murine C127 cells transfected with a BPV vector (murine MT promoter); test: SCCE Inhibitor Test (chromogenic substrate S-2586, absorbance at 405 nm); assay type: biochemical; details: 1 h; 1 μM compound
Measure Name: remaining activity at 1 µM (%)

Guide cases for remaining activity at 1 µM, answers given:
Compound: O=c1oc(-c2cccs2)nc2sc3c(c12)CCC3 [II-14]
Measured On: Recombinant active human SCCE (Homo sapiens, UniProt P49862)
Unit String: %
remaining activity at 1 µM: 37
--
Compound: COc1ccccc1-c1nc2sc3c(c2c(=O)o1)CCCC3 [II-16]
Measured On: Recombinant active human SCCE (Homo sapiens, UniProt P49862)
Unit String: %
remaining activity at 1 µM: 2.7
--
Compound: O=c1nc(-c2cccs2)oc2ccccc12 [Compound I-20]
Measured On: Recombinant active human SCCE (Homo sapiens, UniProt P49862)
Unit String: %
remaining activity at 1 µM: 54
--
Compound: O=c1oc(-c2ccco2)nc2sc3c(c12)CCC3 [II-11]
Measured On: Recombinant active human SCCE (Homo sapiens, UniProt P49862)
Unit String: %
remaining activity at 1 µM: 8
--
Compound: O=c1nc(-c2cccs2)oc2ccc(Cl)cc12 [Compound I-17]
Measured On: Recombinant active human SCCE (Homo sapiens, UniProt P49862)
Unit String: %
remaining activity at 1 µM: 18

(I) Cc1nc2sc3c(c2c(=O)o1)CCCCC3 [II-22]
(II) O=c1oc(-c2ccccc2)nc2sc3c(c12)CCC3 [II-12]
(III) O=c1oc(-c2ccccc2O)nc2ccccc12 [Compound I-10]
// ascending sort on recorded remaining activity at 1 µM Reply: labels, ordered per the request.
II, I, III

(A) O=c1oc(-c2ccc(F)cc2)nc2sc3c(c12)CCC3 [II-13]
(B) CCc1cc2c(=O)oc(-c3ccc(F)cc3)nc2s1 [II-4]
Between the entries labeled A and B , whose measured remaining activity at 1 µM is lower? Refer to your chosen entry by its label in the reply.
B
(B: 15%, A: 37%)

FYI, the data here is from patent US7872052B2.
